# target_system: complement C5a receptor 1 (C5aR1) (Homo sapiens, UniProt P21730)
# Construct: β-galactosidase fragment (PathHunter enzyme complementation); host or cells: CHO-K1 (PathHunter CHO-K1 C5aR1 β-arrestin cell line)
# Sequence (P21730 1-350): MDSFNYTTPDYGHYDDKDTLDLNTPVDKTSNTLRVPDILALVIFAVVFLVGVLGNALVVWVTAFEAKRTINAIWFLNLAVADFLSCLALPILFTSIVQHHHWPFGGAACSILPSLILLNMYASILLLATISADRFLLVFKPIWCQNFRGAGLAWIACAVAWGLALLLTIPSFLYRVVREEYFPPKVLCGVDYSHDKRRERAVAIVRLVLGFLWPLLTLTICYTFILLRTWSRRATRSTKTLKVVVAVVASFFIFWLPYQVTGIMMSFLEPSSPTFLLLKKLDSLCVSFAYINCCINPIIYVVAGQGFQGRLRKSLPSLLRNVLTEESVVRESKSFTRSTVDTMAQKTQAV
# procedure_details: β-arrestin recruitment via C5aR1 activation in live CHO-K1 cells (PathHunter), antagonist mode
# Assay type: cell-based
# test_parameters: antagonist mode; recombinant hC5a (EC90) as competing natural agonist; live CHO-K1 cells; read-out: [Antagonist] B-arrestin2 recruitment: Average IC50
# Description: Exemplary compounds were evaluated for classical GPCR β-arrestin recruitment via complement C5a receptor 1 (C5aR1) activation in live CHO-K1 cells. This cell line expresses two fragments of the […] protein coupled to β-arrestin and C5aR1. Complementation of the two fragments allows for the assessment of both C5aR1 agonism and antagonism. […]
quantity: IC50

Cc1cnc2cc(N3CCN(c4cc(F)cnc4C)CC3)c(=O)n(Cc3nccnc3C(F)(F)F)c2n1    > 100000 nM
Cc1cnc2cc([C@H]3CC[C@@H](c4cnccc4C(F)(F)F)CC3)c(=O)n(Cc3ncccc3C(F)(F)F)c2n1 [150A]    < 500 nM
Cc1ccc2cc([C@H]3CC[C@H](c4c(C)cccc4F)CC3)c(=O)n(Cc3nccnc3C(F)(F)F)c2n1    < 500 nM
Cc1cnc2cc([C@H]3CC[C@H](c4c(C)cccc4F)CC3)c(=O)n(Cc3ncccc3OCC(F)(F)F)c2n1    < 500 nM
COc1cnc2c(cc(C3CCN(c4c(C)cccc4F)CC3)c(=O)n2Cc2ncccc2C(F)(F)F)n1    500 to 5000 nM

complement C5a receptor 1 (C5aR1) (Homo sapiens, UniProt P21730) / IC50 / Cc1ccc2cc([C@H]3CC[C@H](c4c(C)cccc4F)CC3)c(=O)n(Cc3ncccc3CC(F)(F)F)c2n1 : value? < 500 nM

What IC50 appears in the records for this molecule with complement C5a receptor 1 (C5aR1) (Homo sapiens, UniProt P21730)? Cc1cccc(F)c1[C@H]1CC[C@H](c2cc3ncc(CC(F)F)nc3n(Cc3ncccc3C(F)(F)F)c2=O)CC1 < 500 nM

Item: Cc1nccnc1Cn1c(=O)c(C2CCN(c3ccccc3OC(F)F)CC2)cc2nccnc21 Test system: complement C5a receptor 1 (C5aR1) (Homo sapiens, UniProt P21730) Read-out: IC50 Value: ? 5000 to 100000 nM

# get_value(readout= IC50, system= complement C5a receptor 1 (C5aR1) (Homo sapiens, UniProt P21730)) for Cc1ncc2cc(C3CCN(c4c(C)cccc4F)CC3)c(=O)n(Cc3ncccc3OC(F)(F)F)c2n1 < 500 nM

Hi! What's the reported IC50 for Cc1cnc2cc([C@H]3CC[C@@H](c4c(C)cccc4F)C3)c(=O)n(Cc3ncccc3C(F)(F)F)c2n1 [171A] on complement C5a receptor 1 (C5aR1) (Homo sapiens, UniProt P21730)? < 500 nM

Recall the recorded IC50 for Cc1cnc2cc(C3CCN(c4c(C)ccc5c4cnn5C)CC3)c(=O)n(Cc3ncccc3C(F)(F)F)c2n1 with complement C5a receptor 1 (C5aR1) (Homo sapiens, UniProt P21730) and state it. 500 to 5000 nM

These data points were gathered from patent US20260317320A1.
